- TARGET_ENTITY: Protein AF-9 (Homo sapiens) (UniProt P42568)
- Sequence (P42568 whole entry, looked up): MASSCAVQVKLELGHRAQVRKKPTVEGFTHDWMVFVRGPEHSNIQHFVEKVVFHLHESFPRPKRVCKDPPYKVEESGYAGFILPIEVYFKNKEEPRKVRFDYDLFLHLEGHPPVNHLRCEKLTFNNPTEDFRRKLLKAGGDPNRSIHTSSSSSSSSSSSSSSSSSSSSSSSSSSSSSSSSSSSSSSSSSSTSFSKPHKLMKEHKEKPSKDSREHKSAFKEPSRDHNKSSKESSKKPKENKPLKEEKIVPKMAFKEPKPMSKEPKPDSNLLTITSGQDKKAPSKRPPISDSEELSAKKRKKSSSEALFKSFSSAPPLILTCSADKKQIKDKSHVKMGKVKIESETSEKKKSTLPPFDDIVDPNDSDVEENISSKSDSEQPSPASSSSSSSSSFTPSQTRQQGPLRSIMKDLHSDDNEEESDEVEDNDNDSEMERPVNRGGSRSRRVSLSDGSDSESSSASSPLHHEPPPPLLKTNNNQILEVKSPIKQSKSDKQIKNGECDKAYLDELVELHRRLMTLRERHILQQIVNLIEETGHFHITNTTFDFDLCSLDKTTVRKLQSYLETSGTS
- TEST_DETAILS: inhibitors of AF9 AHD–DOT1L interaction, biochemical, AlphaLISA, percent inhibition, MBP-tagged AHD (AID 1794804)
- CONDITION: MBP-AF9 AHD / biotin-DOT1L peptide binding, inhibition, at 20 µM, stronger effect = higher value
Mark Criterion met for reported inhibition of 50% or greater; mark Criterion not met for anything smaller.

INSERT INTO results (record_smiles, target_entity, category_label) VALUES
  ('CC(C)(C)c1ccc(-c2ccc3sc(C(=O)NCC4CCNCC4)cc3c2)cc1', 'Protein AF-9 (Homo sapiens) (UniProt P42568)', 'Criterion met'),
  ('N#Cc1ccc(-c2ccc3sc(C(=O)NCC4CCNCC4)cc3c2)cc1', 'Protein AF-9 (Homo sapiens) (UniProt P42568)', 'Criterion not met'),
  ('N#Cc1ccc(-c2ccc3cc(C(=O)NCC4CCNCC4)oc3c2)cc1', 'Protein AF-9 (Homo sapiens) (UniProt P42568)', 'Criterion not met'),
  ('O=C(NCC1CCNCC1)c1cc2ccc(-c3ccc(C4CCCCC4)cc3)cc2o1', 'Protein AF-9 (Homo sapiens) (UniProt P42568)', 'Criterion met'),
  ('O=C(NCC1CCNCC1)c1cc2ccc(-c3ccc(N4CCNCC4)cc3)cc2[nH]1', 'Protein AF-9 (Homo sapiens) (UniProt P42568)', 'Criterion not met');

Answer whether inhibition of `CC(C)(C)c1ccc(-c2ccc3cc(C(=O)NCC4CCNCC4)sc3c2)cc1` is greater than or equal to 50%.
Criterion met

Next compound up: `O=C(NCC1CCNCC1)c1cc2ccc(-c3ccc(CCO)cc3)cc2[nH]1`
Criterion not met
